System: OVCAR-5 ovarian
procedure-summary: NCI tumour cell line growth inhibition, 48 h
quantity-kind: TGI

Reference set, count: 3
> print(dat)
                                   molecule  quantity.kind     value
1  COc1ccc(NS(=O)(=O)c2ccc(NC(NC(=O)CC(C)C)(C(F)(F)F)C(F)(F)F)cc2)nn1            TGI  > 100 µM
2              On1c(-c2ccccc2)nc2ccccc2c1=S            TGI  > 100 µM
3          COc1cccc(/C=N/n2c(C)n[nH]c2=O)c1            TGI  > 100 µM

stdin: Would you kindly share the measured TGI for C[C@]12CC[C@@H]3c4cc(OCC(F)(F)F)c(O)cc4/C(=N/O)C[C@H]3[C@@H]1CC[C@@H]2O ?
stdout: > 58.2 µM

stdin: Would you kindly share the measured TGI for CC(C)(C[C@H]1CN(S(=O)(=O)c2cccc(C(F)(F)F)c2)c2cc(-c3cc(F)cc(OC(F)F)c3)ccc2O1)C(=O)O ?
stdout: 25.9 µM

stdin: Would you kindly share the measured TGI for CC(C)C[C@H](NC(=O)/C=C/Cn1ccc2ccccc2c1=O)B(O)O ?
stdout: 39.8 µM

stdin: Would you kindly share the measured TGI for CCC1(C)C=Cc2c(cc(O)c3c(=O)c4ccccc4n(C)c23)O1 (stereo unspecified) ?
stdout: > 10 µM

stdin: Would you kindly share the measured TGI for N#Cc1c(Cl)cc(Cl)n2c1nc1ccccc12 ?
stdout: 41.9 µM

stdin: Would you kindly share the measured TGI for CC(C)CC(O)P(=O)(O)O (stereo unspecified) ?
stdout: > 100 µM

stdin: Would you kindly share the measured TGI for COc1ccc2c(cnc3c4cc(OC)c(OC)cc4ccc23)c1 ?
stdout: > 100 µM

stdin: Would you kindly share the measured TGI for S=C1OC2CCCC[C@H]2O1 (stereo partly specified) ?
stdout: > 100 µM

stdin: Would you kindly share the measured TGI for Clc1ccc2c(c1)-c1c3c(nn1-c1ccccc1)-c1ccccc1SC3O2 (stereo unspecified) ?
stdout: > 100 µM

stdin: Would you kindly share the measured TGI for CCCCN=C(c1ccccc1)N1CCOCC1 ?
stdout: > 100 µM

stdin: Would you kindly share the measured TGI for COc1cccc2c(=O)c3c(sc12)c(N1CCNCC1)nc1ccccc13 ?
stdout: 3.24 µM

// provenance: PubChem BioAssay (NCI)
